assay: Toxicity in rat administered as bid for 28 days; assay type: organism-based; conditions: in vivo
VALUE_TYPE: NOAEL at 672 h (mg/kg/day)
Output spec: scalar in mg/kg/day, unitless text.

Problem: Would you mind telling me what NOAEL at 672 h value was observed for OC(CC1c2ccccc2-c2cncn21)C1CCCCC1 (mixture of isomers) ?
Solution: 80

---

target: Indoleamine 2,3-dioxygenase 1 (Homo sapiens); test: Inhibition of recombinant human IDO1 assessed as conversion of […] incubated for 1 hr by fluorescence analysis
Sequence (P14902 whole entry): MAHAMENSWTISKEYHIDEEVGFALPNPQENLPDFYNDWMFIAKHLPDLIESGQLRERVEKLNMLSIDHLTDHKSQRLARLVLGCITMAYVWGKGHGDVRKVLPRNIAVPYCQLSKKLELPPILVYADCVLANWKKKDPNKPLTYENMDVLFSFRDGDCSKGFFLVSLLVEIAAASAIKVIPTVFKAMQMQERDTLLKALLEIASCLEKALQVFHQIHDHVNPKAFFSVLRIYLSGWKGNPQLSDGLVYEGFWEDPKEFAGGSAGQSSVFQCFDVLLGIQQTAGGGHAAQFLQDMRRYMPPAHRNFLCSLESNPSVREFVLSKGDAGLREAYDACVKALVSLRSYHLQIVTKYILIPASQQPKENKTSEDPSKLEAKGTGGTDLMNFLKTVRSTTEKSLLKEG
pIC50: −log10 of the molar value.
VALUE_TYPE: pIC50

Use these answered entries as a reference point.
[[record]]
molecule = "OC(Cn1c2ccccc2c2ccncc21)C1CCCCC1 (stereo unspecified)"
reading = "< 5.00"

[[record]]
molecule = "OC(CC1Nc2ccccc2-c2cncn21)C1CCCCC1 (stereo unspecified)"
reading = 5.94


Problem: Would you mind telling me what pIC50 value was observed for OC(CC1c2ccccc2-c2cnnn21)C1CCCCC1 (stereo unspecified) ?
Solution: < 5.00

Problem: Would you mind telling me what pIC50 value was observed for Cc1ncc2n1C(CC(O)C1CCCCC1)c1ccccc1-2 (stereo unspecified) ?
Solution: < 5.00

Problem: Would you mind telling me what pIC50 value was observed for OC(Cn1c2ccccc2c2cccnc21)C1CCCCC1 (stereo unspecified) ?
Solution: < 5.00

Problem: Would you mind telling me what pIC50 value was observed for O=C(Cn1c2ccccc2c2cccnc21)C1CCCCC1 ?
Solution: < 5.00
